# Test description: Quantitative High-Throughput drug screen in 47 multiple myeloma cell lines against the NCATS MIPE library collection: MOLP8_DSMZ cell viability assay (AID 1918977); also: nearly all actives have a fitted effect of over 45% in size
# Condition: MOLP8 myeloma viability, CellTiter-Glo ATP luminescence, 48 h; series mostly up to 45.8 µM
Records with an inconclusive call do not appear. The source made the active and inactive calls. Calls follow the shape of the dose curve; as a rule, active = well fitted cell-killing curve with a large enough effect; inconclusive = small, poorly fitted or top-dose-only effect, or effect the other way; inactive = no such curve, though single readings can be large or run the other way.
Respond using exactly one of the listed classes: label 1 = active, label 0 = inactive

Worked cases, answers included:
1) COC1=CC(C)=C[C@@H](C)[C@@H](O)[C@@H](C)CC(C)=CC=C[C@H](OC)[C@H]([C@@H](C)[C@@H](O)[C@H](C)[C@@]2(O)C[C@@H](O)[C@H](C)[C@@H](C(C)C)O2)OC1=O : label 1
2) CC(C)(O)C(=O)Nc1ccc([N+](=O)[O-])c(C(F)(F)F)c1 : label 0
3) C#C[C@]1(O)C=C[C@@H]2[C@@H]3CCC4=CC(=O)CC[C@@H]4[C@H]3CC[C@@]21CC : label 0
4) CC(C)(C)[C@]1(O)C[C@@H]2OC(=O)C[C@@]23C(=O)O[C@@H]2OC(=O)[C@H](O)C213 (stereo partly drawn) : label 0
5) CN1[C@H]2CC(O)C[C@H]1[C@H]1O[C@H]12 (stereo partly drawn) : label 1
6) O=S(=O)(CC1CS1)c1ccc(Oc2ccccc2)cc1 (stereo not drawn) : label 1
7) CCN1CCN(C(=O)Cc2ccc(Nc3ncc(F)c(Nc4ccc(C(=O)Nc5ccccc5Cl)cc4)n3)cc2)CC1 : label 1
8) Oc1ccc2c3c1O[C@H]1c4[nH]c5c(c4C[C@@]4(O)[C@@H](C2)N(CC2CC2)CC[C@]314)C[C@@]1(O)[C@H]2Cc3ccc(O)c4c3[C@@]1(CCN2CC1CC1)[C@H]5O4 : label 0
9) CC(=CCCC1=CCC(C2=CC(=O)OC2O)OC1O)CCC1=C(C)CCCC1(C)C (stereo not drawn) : label 0
10) O=c1[nH]c2ccc(Cl)cc2c(N[C@@H]2CN3CCC2CC3)c1-c1nc2ccccc2[nH]1 : label 1

Q. Status in this test for `C[C@@H]1[C@H](O)[C@@H](C)C=CC=CCCC=CC=CC=CC=C[C@H](O[C@H]2O[C@@H](C)[C@H](O)[C@@H](N)[C@@H]2O)CC2O[C@](O)(C[C@@H](O)[C@H](O)CC[C@@H](O)C[C@@H](O)C[C@@H](O)CC(=O)O[C@H]1C)C[C@H](O)[C@H]2C(=O)O` ?
A. label 0

Q. Okay, and `CC=C(C)C(=O)N[C@@H](c1ccccc1)[C@@H](O)C(=O)O[C@H]1C[C@@]2(O)[C@@H](OC(=O)c3ccccc3)[C@@H]3[C@]4(OC(C)=O)CO[C@@H]4C[C@H](O)[C@@]3(C)C(=O)[C@H](OC(C)=O)C(=C1C)C2(C)C` ?
A. label 0

Q. For `CC[C@@H](C(N)=O)N1CCCC1=O` then?
A. label 0

* * *

# Test system: MKL-1
# Test description: qHTS assay to identify novel small-molecules to repurpose for Merkel cell carcinoma treatment (AID 1296009); also: % is scaled to controls: 0 for no effect and ±100 for the full control effect; nearly all actives have a fitted effect of over 60% in size
# Condition: MCC and control cell lines, CellTiter-Glo viability, 72 h; series mostly up to 46 µM
# Source text: MCC is a rare and aggressive neuroendocrine skin cancer with limited treatment options. Approximately 80% of MCCs have the Merkel cell polyomavirus (MCPyV) DNA integrated into the host genome (virus-positive: VP-MCC) and viral oncogenes drive oncogenesis. The remaining MCCs are virus-negative (VN-MCC) and are caused by UV mutagenesis. […] Using cell viability as a readout (CellTiter-Glo assay) we found both overlapping and distinct drugs that can be repurposed for the treatment of VP-MCC and VN-MCC. […]
Records with an inconclusive call do not appear. The source made the active and inactive calls. Calls come from the whole dose curve; as a rule, active = well fitted inhibition curve with a large enough effect; inconclusive = small, poorly fitted or top-dose-only effect; inactive = flat fitted curve, though single readings scatter.
The reply should name one outcome from YES (active), NO (inactive)

Answered cases to consult:
1) CCCCOC(=O)c1ccccc1C(=O)OCc1ccccc1 : NO
2) O=C(Oc1ccc([N+](=O)[O-])cc1)N1CCN(Cc2cccc(Oc3ccccc3)c2)CC1 : NO
3) CCC(=O)O[C@@H]1C=C2CCC3C(CCC4(C)C3CC[C@@H]4OC(=O)CC)C2CC1 (stereo partly drawn) : NO
4) NC1CC1c1ccccc1 (stereo not drawn) : NO

Q. Call for entry `c1ccc2c(CN3CCNCC3)cccc2c1` :
A. NO
